System: A549/TR
Assay: Inhibition of cell growth in human A549/Taxol cells incubated for 72 hrs by SRB method
Type: functional, cell-based
Measured metric: IC50 (nM)

a. COc1ccc(/C=C\c2cc(OC)c(OC)c(OC)c2)cc1OC(=O)CCCNc1cccc2c1C(=O)N(C1CCC(=O)NC1=O)C2=O (configuration not stated)
b. CC(=O)O[C@H]1C(=O)[C@@]2(C)[C@H]([C@H](OC(=O)c3ccccc3)[C@]3(O)C[C@H](OC(=O)[C@H](O)[C@@H](NC(=O)c4ccccc4)c4ccccc4)C(C)=C1C3(C)C)[C@]1(OC(C)=O)CO[C@@H]1C[C@@H]2O [PACLITAXEL]
Min IC50? a | b Could you answer with the label of the item you picked?
a

====

System: MGC-803
Test: Antiproliferative activity against human MGC-803 cells incubated for 72 hrs
Format: functional, cell-based
Details: MGC-803, 72 h
Measured metric: IC50 (µM)

Look over these answered cases.
COc1ccc(/C=C\c2cc(OC)c(OC)c(OC)c2)cc1OC(=O)CCCNc1cccc2c1C(=O)N(C1CCC(=O)NC1=O)C2=O (configuration not stated)    0.008
COc1ccc(/C=C\c2cc(OC)c(OC)c(OC)c2)cc1OC(=O)CCCCOCCc1cn(CCCCCC(=O)Nc2cccc3c2C(=O)N(C2CCC(=O)NC2=O)C3=O)nn1 (configuration not stated)    0.195
COc1ccc(/C=C\c2cc(OC)c(OC)c(OC)c2)cc1OC(=O)CCCCOCCc1cn(CCCCC(=O)Nc2cccc3c2C(=O)N(C2CCC(=O)NC2=O)C3=O)nn1 (configuration not stated)    0.175
COc1ccc(/C=C\c2cc(OC)c(OC)c(OC)c2)cc1OCc1cn(CCCC(=O)Nc2cccc3c2C(=O)N(C2CCC(=O)NC2=O)C3=O)nn1 (configuration not stated)    1.24

P. COc1ccc(/C=C\c2cc(OC)c(OC)c(OC)c2)cc1OC(=O)CCCCCNc1cccc2c1C(=O)N(C1CCC(=O)NC1=O)C2=O (configuration not stated)
Q. COc1ccc(/C=C\c2cc(OC)c(OC)c(OC)c2)cc1OC(=O)CCCOCCc1cn(CCCCCC(=O)Nc2cccc3c2C(=O)N(C2CCC(=O)NC2=O)C3=O)nn1 (configuration not stated)
For P and Q , which recorded IC50 is lower? Bench note: the answer is the label of the chosen record.
P
(P: 0.009 µM, Q: 3.1 µM)

P. COc1ccc(/C=C\c2cc(OC)c(OC)c(OC)c2)cc1OC(=O)CCCCOCCc1cn(CCCC(=O)Nc2cccc3c2C(=O)N(C2CCC(=O)NC2=O)C3=O)nn1 (configuration not stated)
Q. COc1ccc(/C=C\c2cc(OC)c(OC)c(OC)c2)cc1OC(=O)CCCCNc1cccc2c1C(=O)N(C1CCC(=O)NC1=O)C2=O (configuration not stated)
Which entry shows the lesser value of IC50 here, P or Q ? Which one? Tell me its label.
Q

====

Tested on: HeLa
Assay: Antiproliferative activity against human HeLa cells incubated for 72 hrs
Assay type: functional, cell-based
IC50: recorded values

COc1ccc(/C=C\c2cc(OC)c(OC)c(OC)c2)cc1OC(=O)CNc1cccc2c1C(=O)N(C1CCC(=O)NC1=O)C2=O (stereo unspecified)    > 5 µM
COc1ccc(/C=C\c2cc(OC)c(OC)c(OC)c2)cc1OC(=O)CCCCOCCc1cn(CCCCC(=O)Nc2cccc3c2C(=O)N(C2CCC(=O)NC2=O)C3=O)nn1 (stereo unspecified)    1.51 µM
COc1ccc(/C=C\c2cc(OC)c(OC)c(OC)c2)cc1OC(=O)CCCOCCc1cn(CCCCC(=O)Nc2cccc3c2C(=O)N(C2CCC(=O)NC2=O)C3=O)nn1 (stereo unspecified)    > 5 µM
COc1ccc(/C=C\c2cc(OC)c(OC)c(OC)c2)cc1OC(=O)CCCCOCCc1cn(CCCC(=O)Nc2cccc3c2C(=O)N(C2CCC(=O)NC2=O)C3=O)nn1 (stereo unspecified)    1.27 µM

Provide IC50, recorded with HeLa, of COc1ccc(/C=C\c2cc(OC)c(OC)c(OC)c2)cc1OCc1cn(CCCCCC(=O)Nc2cccc3c2C(=O)N(C2CCC(=O)NC2=O)C3=O)nn1 (stereo unspecified)
> 5 µM

Fill: IC50 (HeLa) for this compound COc1ccc(/C=C\c2cc(OC)c(OC)c(OC)c2)cc1OC(=O)CCCCN1C(=O)CCC(N2Cc3c(N)cccc3C2=O)C1=O (stereo unspecified)
> 5 µM

====

Test system: HeLa
Assay: Antiproliferative activity against human HeLa cells incubated for 72 hrs
Format: functional, cell-based
Measured metric: IC50

Study these solved cases before continuing.
COc1ccc(/C=C\c2cc(OC)c(OC)c(OC)c2)cc1OC(=O)CCCCNc1cccc2c1C(=O)N(C1CCC(=O)NC1=O)C2=O (stereo unspecified)    0.023 µM
COc1ccc(/C=C\c2cc(OC)c(OC)c(OC)c2)cc1OC(=O)CCCOCCc1cn(CCCCCC(=O)Nc2cccc3c2C(=O)N(C2CCC(=O)NC2=O)C3=O)nn1 (stereo unspecified)    > 5 µM
COc1ccc(/C=C\c2cc(OC)c(OC)c(OC)c2)cc1OC(=O)CCCCCOCCc1cn(CCCCCC(=O)Nc2cccc3c2C(=O)N(C2CCC(=O)NC2=O)C3=O)nn1 (stereo unspecified)    > 5 µM
COc1ccc(/C=C\c2cc(OC)c(OC)c(OC)c2)cc1OC(=O)CN1C(=O)CCC(N2Cc3c(N)cccc3C2=O)C1=O (stereo unspecified)    > 5 µM
COc1ccc(/C=C\c2cc(OC)c(OC)c(OC)c2)cc1OC(=O)CCNc1cccc2c1C(=O)N(C1CCC(=O)NC1=O)C2=O (stereo unspecified)    > 5 µM
COc1ccc(/C=C\c2cc(OC)c(OC)c(OC)c2)cc1OCc1cn(CCCC(=O)Nc2cccc3c2C(=O)N(C2CCC(=O)NC2=O)C3=O)nn1 (stereo unspecified)    > 5 µM
COc1ccc(/C=C\c2cc(OC)c(OC)c(OC)c2)cc1OCc1cn(CCCCC(=O)Nc2cccc3c2C(=O)N(C2CCC(=O)NC2=O)C3=O)nn1 (stereo unspecified)    > 5 µM
COc1ccc(/C=C\c2cc(OC)c(OC)c(OC)c2)cc1OC(=O)CCCOCCc1cn(CCCC(=O)Nc2cccc3c2C(=O)N(C2CCC(=O)NC2=O)C3=O)nn1 (stereo unspecified)    > 5 µM

Output IC50 of COc1ccc(/C=C\c2cc(OC)c(OC)c(OC)c2)cc1OC(=O)CCCCOCCc1cn(CCCCCC(=O)Nc2cccc3c2C(=O)N(C2CCC(=O)NC2=O)C3=O)nn1 (stereo unspecified)
1.31 µM

Consider the molecule COc1ccc(/C=C\c2cc(OC)c(OC)c(OC)c2)cc1OC(=O)CCN1C(=O)CCC(N2Cc3c(N)cccc3C2=O)C1=O (stereo unspecified) and give its recorded IC50.
> 5 µM

Give the measured IC50 for COc1ccc(/C=C\c2cc(OC)c(OC)c(OC)c2)cc1OC(=O)CCCCCNc1cccc2c1C(=O)N(C1CCC(=O)NC1=O)C2=O (stereo unspecified)
0.023 µM

Query IC50 for COc1ccc(/C=C\c2cc(OC)c(OC)c(OC)c2)cc1OC(=O)CCCN1C(=O)CCC(N2Cc3c(N)cccc3C2=O)C1=O (stereo unspecified)
> 5 µM

Indicate its recorded IC50; the molecule in question is COc1ccc(/C=C\c2cc(OC)c(OC)c(OC)c2)cc1OC(=O)CCCCCOCCc1cn(CCCC(=O)Nc2cccc3c2C(=O)N(C2CCC(=O)NC2=O)C3=O)nn1 (stereo unspecified)
1.9 µM

====

System: MGC-803
Experiment: Antiproliferative activity against human MGC-803 cells incubated for 72 hrs
Format: functional, cell-based
Settings: MGC-803, 72 h
Measured metric: IC50

COc1ccc(/C=C\c2cc(OC)c(OC)c(OC)c2)cc1OC(=O)CCN1C(=O)CCC(N2Cc3c(N)cccc3C2=O)C1=O (centres undefined)    > 5 µM
COc1ccc(/C=C\c2cc(OC)c(OC)c(OC)c2)cc1OC(=O)CNc1cccc2c1C(=O)N(C1CCC(=O)NC1=O)C2=O (centres undefined)    > 5 µM
COc1ccc(/C=C\c2cc(OC)c(OC)c(OC)c2)cc1OC(=O)CCNc1cccc2c1C(=O)N(C1CCC(=O)NC1=O)C2=O (centres undefined)    > 5 µM
COc1ccc(/C=C\c2cc(OC)c(OC)c(OC)c2)cc1OC(=O)CN1C(=O)CCC(N2Cc3c(N)cccc3C2=O)C1=O (centres undefined)    > 5 µM
COc1ccc(/C=C\c2cc(OC)c(OC)c(OC)c2)cc1OC(=O)CCCOCCc1cn(CCCCC(=O)Nc2cccc3c2C(=O)N(C2CCC(=O)NC2=O)C3=O)nn1 (centres undefined)    > 5 µM
COc1ccc(/C=C\c2cc(OC)c(OC)c(OC)c2)cc1OC(=O)CCCCCN1C(=O)CCC(N2Cc3c(N)cccc3C2=O)C1=O (centres undefined)    > 5 µM
COc1ccc(/C=C\c2cc(OC)c(OC)c(OC)c2)cc1OC(=O)CCCCCOCCc1cn(CCCCC(=O)Nc2cccc3c2C(=O)N(C2CCC(=O)NC2=O)C3=O)nn1 (centres undefined)    1.4 µM
COc1ccc(/C=C\c2cc(OC)c(OC)c(OC)c2)cc1OC(=O)CCCOCCc1cn(CCCC(=O)Nc2cccc3c2C(=O)N(C2CCC(=O)NC2=O)C3=O)nn1 (centres undefined)    2.35 µM

Given COc1ccc(/C=C\c2cc(OC)c(OC)c(OC)c2)cc1OC(=O)CCCCCOCCc1cn(CCCC(=O)Nc2cccc3c2C(=O)N(C2CCC(=O)NC2=O)C3=O)nn1 (centres undefined) , respond with its IC50.
1.53 µM

Identify the reported IC50 for the following entry. COc1ccc(/C=C\c2cc(OC)c(OC)c(OC)c2)cc1OC(=O)CCCCN1C(=O)CCC(N2Cc3c(N)cccc3C2=O)C1=O (centres undefined)
> 5 µM

Output measured IC50 for this item: COc1ccc(/C=C\c2cc(OC)c(OC)c(OC)c2)cc1OC(=O)CCCCCOCCc1cn(CCCCCC(=O)Nc2cccc3c2C(=O)N(C2CCC(=O)NC2=O)C3=O)nn1 (centres undefined)
1.79 µM

Give a short answer stating reported IC50 for COc1ccc(/C=C\c2cc(OC)c(OC)c(OC)c2)cc1OCc1cn(CCCCCC(=O)Nc2cccc3c2C(=O)N(C2CCC(=O)NC2=O)C3=O)nn1 (centres undefined) .
> 5 µM

Complete the entry with IC50 for COc1ccc(/C=C\c2cc(OC)c(OC)c(OC)c2)cc1OC(=O)CCCN1C(=O)CCC(N2Cc3c(N)cccc3C2=O)C1=O (centres undefined)
> 5 µM

Please give the documented IC50 of COc1ccc(/C=C\c2cc(OC)c(OC)c(OC)c2)cc1OCc1cn(CCCCC(=O)Nc2cccc3c2C(=O)N(C2CCC(=O)NC2=O)C3=O)nn1 (centres undefined)
> 5 µM
